B1: Osa-1-4 twister ribozyme (parent)
chain: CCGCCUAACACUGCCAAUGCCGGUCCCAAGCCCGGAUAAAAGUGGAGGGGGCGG

Variants of: B1
Assay: self-cleavage, relative activity (ratio to wild type); higher = more cleavage; co-transcriptional
// label = 1 (yes) if self-cleavage is not less than 0.09, otherwise 0 (no)

Take a look at these entries with their results.
{"columns": ["Variant key", "Assigned label"],
 "data": [
  ["A8U C52A", "1 (yes)"],
  ["C21G C33A", "0 (no)"],
  ["C52A G13U", "0 (no)"],
  ["A28U C15A", "1 (yes)"],
  ["A17C A29G", "0 (no)"]
]}

Answer whether self-cleavage of C26U G50U is greater than or equal to 0.09.
1 (yes)

Hello, I need to know if G35A G51C has measured self-cleavage not below 0.09. Thanks!
0 (no)

Confirm if self-cleavage reported for the variant A39C U12G is 0.09 or above.
1 (yes)
